This collection of values is drawn from patent US20130330346A1.

- system-tested: T1, Cynomolgus CXCR2 (cynomolgus, UniProt Q28519 3-353 (rhesus entry))
- T1 construct: On transfected HEK293T or RBL-2H3 cells; native on cynomolgus neutrophils in the WBSC assay; also called cCXCR2; cynoCXCR2
- T1 chain: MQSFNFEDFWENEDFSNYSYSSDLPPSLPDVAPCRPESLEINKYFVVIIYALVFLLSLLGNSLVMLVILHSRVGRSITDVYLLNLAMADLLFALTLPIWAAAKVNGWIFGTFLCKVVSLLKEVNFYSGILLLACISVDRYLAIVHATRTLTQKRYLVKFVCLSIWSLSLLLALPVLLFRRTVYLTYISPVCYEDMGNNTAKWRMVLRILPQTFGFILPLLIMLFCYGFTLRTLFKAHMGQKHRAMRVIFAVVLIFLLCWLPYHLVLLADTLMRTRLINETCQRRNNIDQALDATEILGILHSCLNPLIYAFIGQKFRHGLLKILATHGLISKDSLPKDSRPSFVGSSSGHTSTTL
- method: FACS competition vs 3 nM FMAT-Blue Gro-α
The binders listed here are annotated with their % inhibition of max.
Numeric answer only, unit % assumed.

binder | % inhibition of max (%)
127D1 (VHH, Tested as periplasmic extract (pAX50) and as purified His6-tagged protein (pAX100); also called 127D01; not shown: C-terminal c-myc tag and His6 tag coded by the vector) VHH: EVQLVESGGGLVQAGESLRLSCAASGSTFDFKVMGWYRQPPGKQREGVAAIRLSGNMHYAESVKGRFTISKANAKNTVYLQMNSLRPEDTAVYYCKVNIRGQDYWGQGTQVTVSS | 82.6

**Q:** Fill in: % inhibition of max of 163D2 (VHH, Tested as periplasmic extract (pAX50) and as purified His6-tagged protein (pAX100); also called 163D02; not shown: C-terminal c-myc tag and His6 tag coded by the vector) VHH: EVQLVESGGGLVQAGGSLRLSCAASGRTFSDYAMGWFRQAPGKEREFVAAITWNGGRVFYTASVKGRFTISRDNAKNTMYLQMNSLKPEDTAVYYCAADKDRRTDYLGHPVAYWGQGTQVTVSS is ___
**A:** 91
